Numbers sourced from the supplement of paper PMC3545927.

- study system: furin, P09958;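 also: purified furin at 1:10 enzyme:substrate in 50 mM HEPES pH 7.5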
- Sequence (P09958 whole entry): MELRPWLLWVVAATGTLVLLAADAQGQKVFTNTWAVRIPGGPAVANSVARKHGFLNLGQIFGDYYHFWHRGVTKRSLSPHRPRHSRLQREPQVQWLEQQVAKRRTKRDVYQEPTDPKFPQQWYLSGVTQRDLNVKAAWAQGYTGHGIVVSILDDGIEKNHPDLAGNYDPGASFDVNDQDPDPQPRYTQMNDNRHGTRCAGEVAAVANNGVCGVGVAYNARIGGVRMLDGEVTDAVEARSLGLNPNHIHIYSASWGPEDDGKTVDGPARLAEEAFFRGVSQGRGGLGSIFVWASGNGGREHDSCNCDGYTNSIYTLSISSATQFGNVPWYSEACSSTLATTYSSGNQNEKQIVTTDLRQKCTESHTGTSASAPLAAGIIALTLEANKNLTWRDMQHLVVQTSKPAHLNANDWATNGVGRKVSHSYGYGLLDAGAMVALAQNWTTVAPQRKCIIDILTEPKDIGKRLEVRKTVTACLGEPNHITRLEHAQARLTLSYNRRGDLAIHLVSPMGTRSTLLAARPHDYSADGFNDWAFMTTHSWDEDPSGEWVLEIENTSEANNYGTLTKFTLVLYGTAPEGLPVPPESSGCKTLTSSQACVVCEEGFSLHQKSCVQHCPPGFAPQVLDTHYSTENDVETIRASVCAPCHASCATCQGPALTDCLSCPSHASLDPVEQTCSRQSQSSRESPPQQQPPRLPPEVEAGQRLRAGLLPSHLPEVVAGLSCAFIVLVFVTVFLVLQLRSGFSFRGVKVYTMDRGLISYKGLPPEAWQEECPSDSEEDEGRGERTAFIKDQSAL
- assay name: furin cleavage Z-score vs untreated control; higher = more cleavage, active = 3.5 or more, inactive = 1 or less, 8 variable residues between constant flanks
- condition summary: 7.5 min
Some of the results follow. The hit rate among all sequences tested is not known here.
Short version: furin cleavage Z-score at least 0.9 is Yes, less is No.

{"chain sequence": "CAGKSTKVPAAGNASASA [HC778]", "label value": "Yes"}

## Task Hello, I need to know if CARPFRSFVPAGNASASA [FS-2499] has measured furin cleavage Z-score not below 0.9. Thanks!
## Result No

## Task Hello, I need to know if CAASKVKANLAGNASASA [HC1408] has measured furin cleavage Z-score not below 0.9. Thanks!
## Result Yes

## Task Hello, I need to know if CARPFRYKRKAGNASASA [FS-1402] has measured furin cleavage Z-score not below 0.9. Thanks!
## Result Yes

## Task Hello, I need to know if CAWLEVVTSTAGNASASA [HC2268] has measured furin cleavage Z-score not below 0.9. Thanks!
## Result No

## Task Hello, I need to know if CATLPCSGSWAGNASASA [HC1845] has measured furin cleavage Z-score not below 0.9. Thanks!
## Result No

## Task Hello, I need to know if CARRRRGFRQAGNASASA [FS-2788] has measured furin cleavage Z-score not below 0.9. Thanks!
## Result Yes

## Task Hello, I need to know if CAERAPERRDAGNASASA [FS-24] has measured furin cleavage Z-score not below 0.9. Thanks!
## Result No
